# melting point annotations

For orientation, consider the following solved cases.
>>> print(df.to_string())
                                   compound       observed
0  COC(=O)C1Cc2c([nH]c3ccccc23)C(c2ccc(O)cc2)N1 (configuration not stated)  233 to 235 °C
1   CCN(CC)CCNC(=O)c1cc(I)cc2c(=O)cc[nH]c12  141 to 143 °C

# input Name the reported melting point value associated with the compound `CNn1cc(-c2ccccc2)c2ccccc21`
# output 60 to 62 °C

# input Name the reported melting point value associated with the compound `Cc1cc(F)ccc1C(=O)CCCN1CCC(O)(c2cccc(C(F)(F)F)c2)CC1`
# output 63.5 °C

# input Name the reported melting point value associated with the compound `COc1nccc2c(C)c3[nH]c4ccncc4c3cc12`
# output > 263 °C

# input Name the reported melting point value associated with the compound `CCCc1c(O)c(C(C)=O)cc2c(C)cc(C(=O)O)nc12`
# output 125 to 127 °C

# input Name the reported melting point value associated with the compound C=CCC(O)(Cn1cncn1)c1ccc(Cl)cc1Cl (configuration not stated)
# output 101 °C
